Test system: MDA-MB-231
assayOverview: NCI tumour cell line growth inhibition, 48 h
The source made the active and inactive calls. Cut-off read from the data, not from the text of the source: active = GI50 up to about 1.1 µM and inactive = higher.
observationType: GI50

Query block: Item COC(=O)CN1CCN(c2cccc3c2CCCC3)CC1 : provide GI50
Result block: 71.9 µM (inactive)

Query block: Item O=c1[nH]ncc2[nH]c3c(c12)CCc1ccccc1-3 : provide GI50
Result block: 37.9 µM (inactive)

Query block: Item CCOC(=O)c1nc2ccc(C(F)(F)F)cc2nc1Oc1cc(OC)cc(OC)c1 : provide GI50
Result block: > 100 µM (inactive)

Query block: Item COc1ccc(OC)c2c1C1CCC(=O)N1CN2C(C)=O (centres undefined) : provide GI50
Result block: > 100 µM (inactive)

Query block: Item N#CCOc1cccc(C2(N3CC=CCC3)CCCCC2)c1 : provide GI50
Result block: > 100 µM (inactive)

Query block: Item Cc1oc2nc(N(C)C)n3c(C)nnc3c2c1C : provide GI50
Result block: > 100 µM (inactive)

Query block: Item Cc1c(C)c2c(c(N)c1C#N)C(=O)N(CCN1CCNCC1)C2=O : provide GI50
Result block: 19.3 µM (inactive)

Query block: Item COc1ccc(/C=N/NC(=O)c2cnc3[nH]c(=O)n(C)c(=O)c3c2)cc1 : provide GI50
Result block: 27 µM (inactive)

Query block: Item COC1(OC)CCc2c(sc3ncnc(Nc4cccc(Br)c4)c23)C1 : provide GI50
Result block: 49.5 µM (inactive)

Query block: Item COc1ccc(-c2c(C#N)c(NC(=S)NC(=O)c3ccccc3)nc3c2CCCC3)cc1OC : provide GI50
Result block: 34.7 µM (inactive)

Query block: Item C(=N\Cc1ccccc1)/c1ccccc1-c1ccccc1/C=N/Cc1ccccc1 : provide GI50
Result block: > 10 µM (inactive)

Query block: Item CCCCCCCCCCCC[C@@H](O)[C@H]1CC[C@H]([C@H]2CC[C@H]([C@H](O)CC[C@H](O)CCCCCCCC3=C[C@H](C)OC3=O)O2)O1 : provide GI50
Result block: 2.62 µM (inactive)

Query block: Item CCCCCCCCCCCCCCCCOCC(CC(F)(F)P(=O)(OCC)OCC)OC(C)=O (centres undefined) : provide GI50
Result block: 14.9 µM (inactive)

Query block: Item CCOC(=O)/C=C(/C)Nc1nc2c(c(C(=O)OC)c1C#N)CCCC2 : provide GI50
Result block: > 100 µM (inactive)

Query block: Item CSc1cc(Cl)c(C(=O)Nc2ccccc2)cc1S(=O)(=O)n1ccnc1O : provide GI50
Result block: > 100 µM (inactive)

Query block: Item CC1=C(C(=O)Nc2ccc(Cl)c(C(=O)OC(C)C)c2)SCCO1 : provide GI50
Result block: > 100 µM (inactive)

Query block: Item CCCCCCC(C)c1ccc2c(c1)C(=O)c1nc3ccncc3c(=O)n1-2 (centres undefined) : provide GI50
Result block: 2.54 µM (inactive)

Query block: Item CC(C)OC(=O)C1=C2c3ncccc3C(=O)N2[C@@H](Cl)[C@H](Cl)[C@H]1Cl : provide GI50
Result block: > 100 µM (inactive)

Query block: Item O=S(=O)(N/C(=N\O)Nc1ccc(Cl)cc1)c1ccc(S(=O)(=O)c2ccccc2)s1 : provide GI50
Result block: 22.3 µM (inactive)

Query block: Item Cc1cc2c(C(C)C)c(O)c(O)c(/C=N/c3cc(C(F)(F)F)ccc3Cl)c2c(O)c1-c1c(C)cc2c(C(C)C)c(O)c(O)c(/C=N/c3cc(C(F)(F)F)ccc3Cl)c2c1O : provide GI50
Result block: 25.6 µM (inactive)

Query block: Item CN1C(=O)C(c2c[nH]c3ccccc23)N(C)C(=O)C1c1c[nH]c2ccccc12 (centres undefined) : provide GI50
Result block: 34.2 µM (inactive)

Query block: Item CCOc1cc(NC(C)=O)ccc1C(=O)NN1C(=O)CSC1c1ccccc1 (centres undefined) : provide GI50
Result block: > 100 µM (inactive)

Query block: Item Cc1ccc(C)c(NC(=O)C(=O)C2C(=O)C3=C(CC2(C)C)Nc2ccccc2S3)c1 (centres undefined) : provide GI50
Result block: 97.1 µM (inactive)

Query block: Item Brc1c(C#CCC(c2ccccc2)(c2ccccc2)c2ccccc2)ccc(C#CCC(c2ccccc2)(c2ccccc2)c2ccccc2)c1Br : provide GI50
Result block: > 100 µM (inactive)

Query block: Item COC(=O)[C@@H]1[C@H]2CC[C@]3(C)[C@@H](OC(C)=O)CC[C@H]3[C@@H]2CC[C@H]1C(C)=O : provide GI50
Result block: > 100 µM (inactive)

Query block: Item NC1=C(N2CCOCC2)C(=O)NC2=N/C(=C\c3ccccc3O)C(=O)N21 : provide GI50
Result block: > 100 µM (inactive)

Query block: Item COC(=O)/C=C1/CCC(C)(C(=O)NS(=O)(=O)c2ccc(C)cc2)C1(C)C (centres undefined) : provide GI50
Result block: > 100 µM (inactive)

Query block: Item COc1ccc(N2CCOCC2)cc1 : provide GI50
Result block: > 100 µM (inactive)

Query block: Item C#Cc1cc(Br)c(OC(=O)C(C)(C)C)c(-c2cc(C#C)cc(Br)c2OC(=O)C(C)(C)C)c1 : provide GI50
Result block: 35.1 µM (inactive)

Query block: Item CC1=NN(c2cccc(Cl)c2)C2(SCC(=O)N2c2nc3ccccc3s2)/C1=C\c1ccccc1 (centres undefined) : provide GI50
Result block: 24.4 µM (inactive)

Query block: Item CC(C)(C)N1C(=O)c2ccccc2C1(O)C(F)(F)F (centres undefined) : provide GI50
Result block: > 100 µM (inactive)

Query block: Item Cc1nc(-c2ccc([N+](=O)[O-])cc2)cn2c1nc1ccccc12 : provide GI50
Result block: > 100 µM (inactive)

Query block: Item O=C(NC(CO)CO)c1ccc2cc(C(=O)N3CC(CCl)c4ccc([N+](=O)[O-])cc43)[nH]c2c1 (centres undefined) : provide GI50
Result block: 66.1 µM (inactive)

Query block: Item O=[N+]([O-])c1ccc2c(c1)Sc1ccccc1N2CCCCCl : provide GI50
Result block: > 100 µM (inactive)

Query block: Item COc1ccc(NC(=S)Nc2cc(C)ccn2)cc1 : provide GI50
Result block: > 100 µM (inactive)

Query block: Item COC(=O)[C@]1(NC(=O)c2ccccc2)C[C@H]1C=O : provide GI50
Result block: > 100 µM (inactive)

Query block: Item NCC(O)CSCc1ccc(Cl)cc1 (centres undefined) : provide GI50
Result block: > 100 µM (inactive)

Query block: Item O=[N+]([O-])/C(Cl)=C(/C(Cl)=C(Cl)Cl)N1CCOCC1 : provide GI50
Result block: 3.86 µM (inactive)

Query block: Item CC1CN=C(Nc2cccc(F)c2)S1 (centres undefined) : provide GI50
Result block: 3.99 µM (inactive)
